Source of measurements: paper PMC11537005

tested on: MRSA 103; assay: microbe, parasite or virus in culture; type: cell-based, Staphylococcus aureus; details: 103, 18 h
Residues, ends and D or L forms follow the SMILES beside them.
// reported MIC per item

[
  {
    "molecule": "N=C(N)NCCC[C@H](NC(=O)CNC(=O)[C@H](CO)NC(=O)CNC(=O)[C@H](CCCNC(=N)N)NC(=O)[C@H](CCCNC(=N)N)NC(=O)[C@H](CCCNC(=N)N)NC(=O)[C@H](Cc1c[nH]c2ccccc12)NC(=O)[C@H](Cc1c[nH]c2ccccc12)NC(=O)[C@@H](N)Cc1c[nH]c2ccccc12)C(=O)N[C@@H](CCCNC(=N)N)C(=O)N[C@@H](CCCNC(=N)N)C(=O)N[C@@H](Cc1c[nH]c2ccccc12)C(=O)N[C@@H](Cc1c[nH]c2ccccc12)C(=O)N[C@@H](Cc1c[nH]c2ccccc12)C(N)=O [W5] (H-WWWRRRGSGRRRWWW-NH2)",
    "MIC": "8 µM"
  },
  {
    "molecule": "N=C(N)NCCC[C@H](NC(=O)CNC(=O)[C@H](CO)NC(=O)CNC(=O)[C@H](CCCNC(=N)N)NC(=O)[C@H](CCCNC(=N)N)NC(=O)[C@@H](N)Cc1c[nH]c2ccccc12)C(=O)N[C@@H](CCCNC(=N)N)C(=O)N[C@@H](Cc1c[nH]c2ccccc12)C(N)=O [W2] (H-WRRGSGRRW-NH2)",
    "MIC": "> 64 µM"
  },
  {
    "molecule": "N=C(N)NCCC[C@H](NC(=O)CNC(=O)[C@H](CO)NC(=O)CNC(=O)[C@H](CCCNC(=N)N)NC(=O)[C@H](CCCNC(=N)N)NC(=O)[C@H](CCCNC(=N)N)NC(=O)[C@@H](N)Cc1c[nH]c2ccccc12)C(=O)N[C@@H](CCCNC(=N)N)C(=O)N[C@@H](CCCNC(=N)N)C(=O)N[C@@H](Cc1c[nH]c2ccccc12)C(N)=O [W3] (H-WRRRGSGRRRW-NH2)",
    "MIC": "> 64 µM"
  },
  {
    "molecule": "N=C(N)NCCC[C@H](NC(=O)CNC(=O)[C@H](CO)NC(=O)CNC(=O)[C@H](CCCNC(=N)N)NC(=O)[C@@H](N)Cc1c[nH]c2ccccc12)C(=O)N[C@@H](Cc1c[nH]c2ccccc12)C(N)=O [W1] (H-WRGSGRW-NH2)",
    "MIC": "> 64 µM"
  }
]
